Molecular target: wildtype Kras / hSOS1 (Homo sapiens, UniProt P01116)
Construct: made in house; host or cells: E. coli BL21 (DE3)
Sequence (P01116 1-188 isoform P01116-2): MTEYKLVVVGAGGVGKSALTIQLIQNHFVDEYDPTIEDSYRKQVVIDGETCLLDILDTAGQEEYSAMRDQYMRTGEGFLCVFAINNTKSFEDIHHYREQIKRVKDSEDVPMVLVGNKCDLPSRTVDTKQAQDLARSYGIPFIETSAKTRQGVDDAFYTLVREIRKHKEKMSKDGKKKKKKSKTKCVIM
Experiment: HTRF assay, wildtype Kras / SOS1 interaction
Format: binding
Settings: compound nos. 401-703; read-out: IC50 against wildtype Kras
As shown below, each of these compounds has a reported IC50 value.
experimental endpoint: IC50

[[record]]
compound = "Cc1ccc(C(N)=O)cc1-c1c(Cl)cc2c(N3CC4CCC(C3)N4)nc(OCC34CCCN3CCC4)nc2c1F [Compound 417]"
experimental_endpoint = "IC50"
readout_value = "< 500 nM"

[[record]]
compound = "N#CC1COCCN(c2nc(OCC34CCCN3C[C@H](F)C4)nc3c(F)c(-c4ccc(F)c5sc(N)nc45)c(Cl)cc23)C1 (some centres unmarked) [Compound 513]"
experimental_endpoint = "IC50"
readout_value = "> 500 nM"

[[record]]
compound = "Cc1ccc2[nH]nc(N)c2c1-c1ccc2c(N3CC4CCC(C3)N4)nc(OC[C@@]34CCCN3C[C@H](F)C4)nc2c1F [Compound 703]"
experimental_endpoint = "IC50"
readout_value = "> 500 nM"

[[record]]
compound = "Fc1ccc(-c2c(Cl)cc3c(N4CC5CCC(C4)N5)nc(OC[C@@]45CCCN4C[C@H](F)C5)nc3c2F)c2c1CCCC2 [Compound 689]"
experimental_endpoint = "IC50"
readout_value = "> 500 nM"

[[record]]
compound = "Nc1nc2c(-c3c(Cl)cc4c(N5CCN(S(=O)(=O)C6CC6)CC(F)(F)C5)nc(OC[C@@]56CCCN5C[C@H](F)C6)nc4c3F)ccc(F)c2s1 [Compound 576]"
experimental_endpoint = "IC50"
readout_value = "> 500 nM"

[[record]]
compound = "CN1CCC[C@H]1COc1nc(N2CCCC(Cl)CC2)c2cc(Cl)c(-c3cccc4sc(N)nc34)c(F)c2n1 (some centres unmarked) [Compound 593]"
experimental_endpoint = "IC50"
readout_value = "> 500 nM"

[[record]]
compound = "Nc1nc2c(-c3c(Cl)cc4c(N5CCC6CCC(C5)N6)nc(OC[C@@]56CCCN5C[C@H](F)C6)nc4c3F)ccc(F)c2s1 (some centres unmarked) [Compound 684]"
experimental_endpoint = "IC50"
readout_value = "> 500 nM"

[[record]]
compound = "CN1CCC[C@H]1COc1nc(N2CCCCC(O)C2)c2cc(Cl)c(-c3cccc4sc(N)nc34)c(F)c2n1 (some centres unmarked) [Compound 562]"
experimental_endpoint = "IC50"
readout_value = "> 500 nM"

[[record]]
compound = "Fc1c(-c2cccc3scc(Cl)c23)c(Cl)cc2c(N3CC4CCC(C3)N4)nc(OC[C@@]34CCCN3C[C@H](F)C4)nc12 [Compound 423]"
experimental_endpoint = "IC50"
readout_value = "< 500 nM"

[[record]]
compound = "Nc1nc2c(-c3c(Cl)cc4c(N5CCNC(=O)CC5)nc(OC[C@@]56CCCN5C[C@H](F)C6)nc4c3F)ccc(F)c2s1 [Compound 604]"
experimental_endpoint = "IC50"
readout_value = "> 500 nM"

[[record]]
compound = "Nc1c(Cl)cccc1-c1c(Cl)cc2c(N3CC4CCC(C3)N4)nc(OCC34CCCN3CCC4)nc2c1F [Compound 589]"
experimental_endpoint = "IC50"
readout_value = "> 500 nM"

[[record]]
compound = "Fc1c(Br)ccc2c(N3CC4CCC(C3)N4)nc(OC[C@@]34CCCN3C[C@H](F)C4)nc12 [Compound 537]"
experimental_endpoint = "IC50"
readout_value = "> 500 nM"

[[record]]
compound = "Nc1ccc2cccc(-c3c(Cl)cc4c(N5CC6CCC(C5)N6)nc(OC[C@@]56CCCN5C[C@H](F)C6)nc4c3F)c2n1 [Compound 606]"
experimental_endpoint = "IC50"
readout_value = "> 500 nM"

[[record]]
compound = "Fc1c(-c2ccccc2-c2ccccc2)c(Cl)cc2c(N3CCCCCC3)nc(OCC34CCCN3CCC4)nc12 [Compound 603]"
experimental_endpoint = "IC50"
readout_value = "> 500 nM"

[[record]]
compound = "N#CCCc1cc2c(N3CC4CCC(C3)N4)nc(OC[C@@]34CCCN3C[C@H](F)C4)nc2c(F)c1-c1cc(O)cc2ccccc12 [Compound 595]"
experimental_endpoint = "IC50"
readout_value = "> 500 nM"

[[record]]
compound = "Nc1nc2c(-c3c(Cl)cc4c(N5CCCC(O)CC5)nc(OC[C@@]56CCCN5C[C@H](F)C6)nc4c3F)ccc(F)c2s1 (some centres unmarked) [Compound 407]"
experimental_endpoint = "IC50"
readout_value = "< 500 nM"

[[record]]
compound = "CNCCCN1[C@@H]2CC[C@H]1CN(c1nc(OCC34CCCN3CCC4)nc3c(F)c(-c4ccc(F)c5sc(N)nc45)c(Cl)cc13)C2 [Compound 594]"
experimental_endpoint = "IC50"
readout_value = "> 500 nM"

[[record]]
compound = "CN1CCC[C@H]1COc1nc(N2CCCC(NC3CC3)CC2)c2cc(Cl)c(-c3cccc4sc(N)nc34)c(F)c2n1 (some centres unmarked) [Compound 559]"
experimental_endpoint = "IC50"
readout_value = "> 500 nM"

[[record]]
compound = "CN(C)C1CN(c2nc(N3CC4CCC(C3)N4)c3cc(Cl)c(-c4ccc(F)c5sc(N)nc45)c(F)c3n2)C1 [Compound 503]"
experimental_endpoint = "IC50"
readout_value = "> 500 nM"

[[record]]
compound = "Nc1cc(-c2c(Cl)cc3c(N4CC5CCC(C4)N5)nc(OCC45CCCN4CCC5)nc3c2F)c2ccccc2n1 [Compound 636]"
experimental_endpoint = "IC50"
readout_value = "> 500 nM"

[[record]]
compound = "Nc1nc2c(-c3c(Cl)cc4c(N5CCCCCC5)nc(OC[C@@]56CCCN5C[C@H](F)C6)nc4c3F)ccc(F)c2s1 [Compound 499]"
experimental_endpoint = "IC50"
readout_value = "< 500 nM"

[[record]]
compound = "Nc1nc2c(-c3c(Cl)cc4c(N5CCC6CCC(C5)N6)nc(OCC56CCCN5CCC6)nc4c3F)ccc(F)c2s1 (centres unmarked) [Compound 494]"
experimental_endpoint = "IC50"
readout_value = "< 500 nM"

[[record]]
compound = "CN1CCC[C@H]1COc1nc(N2CCCC(C(=O)O)CC2)c2cc(Cl)c(-c3cccc4sc(N)nc34)c(F)c2n1 (some centres unmarked) [Compound 414]"
experimental_endpoint = "IC50"
readout_value = "< 500 nM"


----------
As shown below, each of these compounds has a reported IC50 value.
Biological target: GST-tagged K-Ras mutant / His-tagged hSOS1 (Homo sapiens)
Sequence (P01116 whole entry G12D, form open): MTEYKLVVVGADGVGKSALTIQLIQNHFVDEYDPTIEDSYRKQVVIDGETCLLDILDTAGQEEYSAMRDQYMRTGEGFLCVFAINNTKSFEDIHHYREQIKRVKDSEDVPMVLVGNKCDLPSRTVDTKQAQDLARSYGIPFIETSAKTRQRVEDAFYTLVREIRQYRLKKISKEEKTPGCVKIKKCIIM
Assay: HTRF assay, K-Ras mutant / SOS1 interaction
Assay type: binding
Settings: compound nos. 401-703; read-out: IC50 against mutant Kras
Description: This assay can be also used to assess a selective inhibition of a mutant Ras protein relative to a wildtype, or relative to a different mutant Ras protein. For example, the equilibrium interaction of wildtype Kras or K-Ras mutant (e.g., wildtype or a mutant thereof including those mentioned in Example 6) with SOS1 (e.g., hSOS1) can be assessed as a proxy or an indication for a subject compound's ability to bind and inhibit Ras protein. […]
experimental endpoint: IC50

[[record]]
compound = "Nc1nc2c(-c3c(Cl)cc4c(N5CCN(S(=O)(=O)C6CC6)CC(F)(F)C5)nc(OC[C@@]56CCCN5C[C@H](F)C6)nc4c3F)ccc(F)c2s1 [Compound 576]"
readout_value = "< 500 nM"

[[record]]
compound = "N#Cc1csc2cccc(-c3c(Cl)cc4c(N5CC6CCC(C5)N6)nc(OC[C@@]56CCCN5C[C@H](F)C6)nc4c3F)c12 [Compound 674]"
readout_value = "< 500 nM"

[[record]]
compound = "Nc1ccc2cccc(-c3c(Cl)cc4c(N5CC6CCC(C5)N6)nc(OCC56CCCN5CCC6)nc4c3F)c2n1 [Compound 597]"
readout_value = "> 500 nM"

[[record]]
compound = "Oc1ccc2ccc(-c3c(Cl)cc4c(N5CC6CCC(C5)N6)nc(OCC56CCCN5CCC6)nc4c3F)cc2c1 [Compound 650]"
readout_value = "> 500 nM"

[[record]]
compound = "Nc1nc2c(-c3c(Cl)cc4c(N5CCCCC56CNC6)nc(OC[C@@]56CCCN5C[C@H](F)C6)nc4c3F)ccc(F)c2s1 [Compound 629]"
readout_value = "> 500 nM"

[[record]]
compound = "Nc1nc2c(-c3cc4c(=O)n(CCN5CCCC5)nc(N5CCCOCC5)c4cc3Cl)ccc(F)c2s1 [Compound 484]"
readout_value = "> 500 nM"


----------
As shown below, each of these molecules has a reported pIC50 value.
Target: wildtype Kras / hSOS1 (Homo sapiens, UniProt P01116)
Construct: made in house; host or cells: E. coli BL21 (DE3)
Assay: HTRF assay, wildtype Kras / SOS1 interaction
Assay type: binding
Conditions: compound nos. 401-703; read-out: IC50 against wildtype Kras
pIC50: −log10 of the molar value.
experimental endpoint: pIC50

[[record]]
molecule = "Fc1c(N2CCCc3ccccc32)ccc2c(N3CCCCCC3)nc(OCC34CCCN3CCC4)nc12 [Compound 580]"
experimental_system = "wildtype Kras / hSOS1 (Homo sapiens, UniProt P01116)"
experimental_endpoint = "pIC50"
readout_value = "< 6.30"

[[record]]
molecule = "N#Cc1c(N)sc2c(F)ccc(-c3c(Cl)cc4c(N5CCCOCC5)nc(OC[C@@]56CCCN5C[C@H](F)C6)nc4c3F)c12 [Compound 598]"
experimental_system = "wildtype Kras / hSOS1 (Homo sapiens, UniProt P01116)"
experimental_endpoint = "pIC50"
readout_value = "< 6.30"

[[record]]
molecule = "Nc1nc2c(-c3c(Cl)cc4c(N5CCNCC(F)(F)C5)nc(OCCCN5CCCC5)nc4c3F)ccc(F)c2s1 [Compound 555]"
experimental_system = "wildtype Kras / hSOS1 (Homo sapiens, UniProt P01116)"
experimental_endpoint = "pIC50"
readout_value = "< 6.30"

[[record]]
molecule = "OC1Cc2ccccc2N(c2ccc3c(N4CCCCCC4)nc(OCC45CCCN4CCC5)nc3c2F)C1 (centres unmarked) [Compound 534]"
experimental_system = "wildtype Kras / hSOS1 (Homo sapiens, UniProt P01116)"
experimental_endpoint = "pIC50"
readout_value = "< 6.30"

[[record]]
molecule = "CN1CCC[C@H]1COc1nc(N2CCCC(NS(=O)(=O)C3CC3)CC2)c2cc(Cl)c(-c3cccc4sc(N)nc34)c(F)c2n1 (some centres unmarked) [Compound 472]"
experimental_system = "wildtype Kras / hSOS1 (Homo sapiens, UniProt P01116)"
experimental_endpoint = "pIC50"
readout_value = "> 6.30"

[[record]]
molecule = "CN1CCC[C@H]1COc1nc(N2CCCC(N3CC(N)C3)CC2)c2cc(Cl)c(-c3cccc4sc(N)nc34)c(F)c2n1 (some centres unmarked) [Compound 441]"
experimental_system = "wildtype Kras / hSOS1 (Homo sapiens, UniProt P01116)"
experimental_endpoint = "pIC50"
readout_value = "> 6.30"

[[record]]
molecule = "Nc1nc2ccccc2c(-c2ccc3c(N4CC5CCC(C4)N5)nc(OCC45CCCN4CCC5)nc3c2F)c1Cl [Compound 493]"
experimental_system = "wildtype Kras / hSOS1 (Homo sapiens, UniProt P01116)"
experimental_endpoint = "pIC50"
readout_value = "> 6.30"

[[record]]
molecule = "CN1CCC[C@H]1COc1nc(N2CCCC(F)C(F)C2)c2cc(Cl)c(-c3cccc4sc(N)nc34)c(F)c2n1 (some centres unmarked) [Compound 573]"
experimental_system = "wildtype Kras / hSOS1 (Homo sapiens, UniProt P01116)"
experimental_endpoint = "pIC50"
readout_value = "< 6.30"

[[record]]
molecule = "CN1CCCC1CCn1nc(N2CC3CCC(C2)N3)c2ccc(-c3cc(O)cc4ccccc34)c(F)c2c1=O (centres unmarked) [Compound 529]"
experimental_system = "wildtype Kras / hSOS1 (Homo sapiens, UniProt P01116)"
experimental_endpoint = "pIC50"
readout_value = "< 6.30"

[[record]]
molecule = "N#Cc1c(N)sc2c(F)ccc(-c3c(Cl)cc4c(N5C[C@H]6CC[C@@H](C5)N6CC5COC5)nc(OC[C@@]56CCCN5C[C@H](F)C6)nc4c3F)c12 [Compound 643]"
experimental_system = "wildtype Kras / hSOS1 (Homo sapiens, UniProt P01116)"
experimental_endpoint = "pIC50"
readout_value = "< 6.30"

[[record]]
molecule = "Cc1c(N)sc2cccc(-c3ccc4c(N5CC6CCC(C5)N6)nc(OC[C@@]56CCCN5C[C@H](F)C6)nc4c3F)c12 [Compound 437]"
experimental_system = "wildtype Kras / hSOS1 (Homo sapiens, UniProt P01116)"
experimental_endpoint = "pIC50"
readout_value = "> 6.30"

[[record]]
molecule = "Cc1ccc2oc(N)nc2c1-c1c(Cl)cc2c(N3CCNCC(F)(F)C3)nc(OC[C@@H]3CCCN3C)nc2c1F [Compound 462]"
experimental_system = "wildtype Kras / hSOS1 (Homo sapiens, UniProt P01116)"
experimental_endpoint = "pIC50"
readout_value = "> 6.30"

[[record]]
molecule = "CN(C)CC1(COc2nc(N3CCNCC(F)(F)C3)c3cc(Cl)c(-c4ccc(F)c5sc(N)nc45)c(F)c3n2)CC1 [Compound 489]"
experimental_system = "wildtype Kras / hSOS1 (Homo sapiens, UniProt P01116)"
experimental_endpoint = "pIC50"
readout_value = "> 6.30"

[[record]]
molecule = "CN1CCC[C@H]1COc1nc(N2CCCCC(C(N)=O)C2)c2cc(Cl)c(-c3cccc4sc(N)nc34)c(F)c2n1 (some centres unmarked) [Compound 700]"
experimental_system = "wildtype Kras / hSOS1 (Homo sapiens, UniProt P01116)"
experimental_endpoint = "pIC50"
readout_value = "< 6.30"


Recorded values, source patent US20240254129A1.
